Record: compiled pKi on Plasminogen (Homo sapiens, UniProt P00747) from multiple reports.
pKi: −log10 of the molar value.
Measure name: pKi

These solved cases illustrate the format of a correct answer.
Compound	Measure name	Result number
N=C(N)c1cccc(C[C@H](NS(=O)(=O)c2cccc(CCCCN)c2)C(=O)N2CCC(CCN)CC2)c1	pKi	6.70
NC1CCC(CNC(=O)[C@@H]2CCCN2C(=O)C(NS(=O)(=O)Cc2ccccc2)C(c2ccccc2)c2ccccc2)CC1 (stereo not given in full)	pKi	6.31
N=C(N)c1cccc(C[C@H](NS(=O)(=O)c2cccc(NC(=O)CCN)c2)C(=O)N2CCC(CCN=C(N)N)CC2)c1	pKi	5.30

(P) N=C(N)c1cccc(C[C@H](NS(=O)(=O)c2cccc(C3CCC(N)=NC3)c2)C(=O)N2CCC(CCN)CC2)c1 (stereo not given in full)
(Q) N=C(N)Nc1ccc(CNC(=O)N2CCN(C(=O)OC[C@H]3C4C=CC(CC4)[C@@H]3COC(=O)N3CCN(C(=O)NCc4ccc(NC(=N)N)cc4)CC3)CC2)cc1
(R) NC(N)=Nc1ncc(Cl)c2ccc(S(=O)(=O)Nc3ccccc3C(=O)O)cc12
(S) COC(=O)[C@@H]1CCCCN1C(=O)[C@H](Cc1cccc(C(=N)N)c1)NS(=O)(=O)c1cccc(NC(=O)CCN)c1
List items by pKi in falling order. In plain terms: list the labels in the order you were asked to.
P, R, S, Q
(P: 7.55, R: 4.48, S: 4.16, Q: 3.15)

(P) N=C(N)c1ccc2c(ccn2CCCCn2ccc3cc(C(=N)N)ccc32)c1
(Q) N=C(N)c1ccc(OCCCOc2ccc(-c3nc4ccc(C(=N)N)cc4[nH]3)cc2)cc1
Select the item with the higher value of pKi from the options P and Q listed. Indicate your choice by writing its label.
P
(P: 5.53, Q: 5.09)

----------
Record: compiled Ki on Plasminogen (Homo sapiens) from multiple reports.
Measure name: Ki (µM)

Compound	Reading unit	Result number
N=C(N)c1ccc(Oc2cc(NC(=O)C3CCN(CCN)CC3)cc(Oc3ccc(C(=N)N)cc3)c2)cc1	µM	2.41
N=C(N)c1ccc2cc(C3CC3c3ccc4c(c3)C(c3ccccc3)=NCC4)ccc2c1 (stereo unspecified)	µM	0.955
CN=C(N)NCCC[C@H](NC(=O)CN(C)C(=O)CCc1ccccc1)B(O)O	µM	14
N=C(N)N1CCC(CCNC(=O)N2CCN(C(=O)O[C@H]3CCC[C@@H](OC(=O)N4CCN(C(=O)NCCC5CCN(C(=N)N)CC5)CC4)CCC3)CC2)CC1	µM	632
N=C(N)c1cccc(C[C@H](NS(=O)(=O)c2cccc(NC(=O)CCN)c2)C(=O)N2CCC(CCCC(=O)O)CC2)c1	µM	3.3

(1) CNC(=O)CCC(=O)N1CCN(C(=O)[C@H](Cc2cccc(C(=N)N)c2)NS(=O)(=O)c2cccc(NC(=O)CCN)c2)CC1
(2) C[C@@H]1CN2CC(=O)Nc3ccc(cc3)C[C@@H](C(=O)NCc3ccc(C(=N)N)cc3)NC(=O)[C@H](NS(=O)(=O)Cc3ccccc3)Cc3ccc(cc3)NC(=O)CN1C[C@@H]2C
(3) N=C(N)NCCCC1CCN(C(=O)[C@H](Cc2cccc(C(=N)N)c2)NS(=O)(=O)c2ccc3ccccc3c2)CC1
(4) CC1(C)CC(=O)C=C(N2CC[C@H](Oc3ccc(C(Oc4ccc5c(c4)CN(C(=N)N)CC5)C(=O)O)cc3)C2)C1 (stereo partly specified)
(5) N=C(N)c1ccc(Oc2cc(Oc3ccc(C(=N)N)cc3)cc(C(=O)NC3CCCCC3)c2)cc1
List items by Ki in falling order. In plain terms: list the labels in the order you were asked to.
4, 1, 5, 3, 2
